test target: T1, EsCas13d, nuclease-dead (Eubacterium siraeum, UniProt B0MS50, R295A;H300A;R849A;H854A)
T1 sequence: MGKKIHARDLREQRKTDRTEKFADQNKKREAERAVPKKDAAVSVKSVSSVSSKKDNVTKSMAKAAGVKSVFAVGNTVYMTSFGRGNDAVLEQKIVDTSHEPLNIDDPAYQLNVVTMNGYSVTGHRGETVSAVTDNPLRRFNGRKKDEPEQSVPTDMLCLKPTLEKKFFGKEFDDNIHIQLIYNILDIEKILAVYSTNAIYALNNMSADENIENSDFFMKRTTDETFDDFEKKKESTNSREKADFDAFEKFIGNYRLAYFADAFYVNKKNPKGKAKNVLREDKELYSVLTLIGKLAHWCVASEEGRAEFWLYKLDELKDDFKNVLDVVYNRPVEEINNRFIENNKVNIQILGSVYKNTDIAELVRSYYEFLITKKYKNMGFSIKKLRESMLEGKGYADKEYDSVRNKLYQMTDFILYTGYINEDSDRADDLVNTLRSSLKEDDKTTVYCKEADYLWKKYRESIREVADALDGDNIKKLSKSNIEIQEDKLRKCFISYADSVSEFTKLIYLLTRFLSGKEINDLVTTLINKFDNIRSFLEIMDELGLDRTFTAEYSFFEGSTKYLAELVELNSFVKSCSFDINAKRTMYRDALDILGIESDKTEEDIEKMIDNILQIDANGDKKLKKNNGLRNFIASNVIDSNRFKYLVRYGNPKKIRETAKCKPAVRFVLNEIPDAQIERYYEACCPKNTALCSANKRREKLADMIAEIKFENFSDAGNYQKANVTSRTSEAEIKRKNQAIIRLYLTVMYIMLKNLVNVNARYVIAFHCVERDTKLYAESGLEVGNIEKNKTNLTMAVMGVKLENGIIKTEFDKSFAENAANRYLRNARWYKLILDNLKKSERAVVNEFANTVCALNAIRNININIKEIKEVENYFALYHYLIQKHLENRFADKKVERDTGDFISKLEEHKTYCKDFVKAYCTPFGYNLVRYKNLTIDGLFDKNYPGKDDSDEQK
procedure summary: crRNA (strand 1, pre-loaded); Mg2+; 40 mM Tris-HCl pH 7.5, 150 mM NaCl, 6 mM MgCl2, 1 mM DTT, 0.1% Tween-20, 0.2 mg/ml BSA; 25 C; 10 min per concentration, then washed
condition: tags: His6-TwinStrep-SUMO cleaved; N-terminal SNAP kept (SNAP-Surface 488); label: 3' end held by stalled T7 RNA polymerase
parameter: pKd
Formally, pKd is defined as -log10 of the concentration c, with c in mol/L.

Example entries and their recorded answers appear below.
| binder | pKd |
| --- | --- |
| target 1 insU 3' of 12,insC 3' of 5 (mixed) RNA 1: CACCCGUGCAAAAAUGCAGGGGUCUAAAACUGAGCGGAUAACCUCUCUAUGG RNA 2: GGGAAUGGAUCCACAUCUACGAAUUCGUACCAUAGAGAGGUUUAUCCGCCUCACCGAGAUCGGAAGAGCACACGU | 8.01 |
| target 1 MT 5'PFS CCU 3'PFS CCG (mixed) RNA 1: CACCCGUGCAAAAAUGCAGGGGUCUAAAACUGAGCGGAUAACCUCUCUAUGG RNA 2: GGGAAUGGAUCCACAUCUACGAAUUCCCUCCAUAGAGAGGUUAUCCGCUCACCGAGAUCGGAAGAGCACACGU | 7.78 |
| target 1 insU 3' of 18,insA 3' of 17 (mixed) RNA 1: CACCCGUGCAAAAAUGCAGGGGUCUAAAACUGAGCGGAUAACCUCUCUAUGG RNA 2: GGGAAUGGAUCCACAUCUACGAAUUCGUACCAUAUGAAGAGGUUAUCCGCUCACCGAGAUCGGAAGAGCACACGU | 7.27 |

Q: Please give the documented pKd of target 1 insG 3' of 14,insC 3' of 13 (mixed) RNA 1: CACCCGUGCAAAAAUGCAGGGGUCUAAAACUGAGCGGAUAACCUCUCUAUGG RNA 2: GGGAAUGGAUCCACAUCUACGAAUUCGUACCAUAGAGAGGCGUUAUCCGCUCACCGAGAUCGGAAGAGCACACGU
A: 7.86

Q: Specify reported pKd for the binder shown: target 1 MT 5'PFS CCA 3'PFS UUU (mixed) RNA 1: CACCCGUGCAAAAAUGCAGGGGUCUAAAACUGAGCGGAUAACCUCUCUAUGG RNA 2: GGGAAUGGAUCCACAUCUACGAAUUCCCACCAUAGAGAGGUUAUCCGCUCAUUUAGAUCGGAAGAGCACACGU
A: 8.62

Q: Please list pKd recorded for the binder target 1 G5C,G15C (mixed) RNA 1: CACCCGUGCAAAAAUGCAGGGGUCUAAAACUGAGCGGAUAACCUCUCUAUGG RNA 2: GGGAAUGGAUCCACAUCUACGAAUUCGUACCAUAGACAGGUUAUCCCCUCACCGAGAUCGGAAGAGCACACGU
A: 7.42

Q: # return recorded pKd for entry target 3 C6U,A9G (mixed) RNA 1: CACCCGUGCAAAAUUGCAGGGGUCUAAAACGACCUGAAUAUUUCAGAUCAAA RNA 2: GGGAAUGGAUCCACAUCUACGAAUUCGUUUUUGAUCUGAAAUGUUUAGGUCUGCAGAUCGGAAGAGCACACGU
A: 7.66

Q: Return pKd (reported value) for this binder: target 1 MT 5'PFS UCA 3'PFS ACA (mixed) RNA 1: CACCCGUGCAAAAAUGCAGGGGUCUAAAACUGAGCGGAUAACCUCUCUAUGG RNA 2: GGGAAUGGAUCCACAUCUACGAAUUCUCACCAUAGAGAGGUUAUCCGCUCAACAAGAUCGGAAGAGCACACGU
A: 7.88
